assay: anti-His antibody binders, primary screen, artefact control for SMM control protein annotation, biochemical, small-molecule microarray, 635 nm fluorescence (AID 1128); conditions: anti-His Alexa647 antibody binding, higher = more signal;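 further: score merges feature fluorescence with signal-to-noise for each printed compound spot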
Answer each item with its documented composite z-score.
Answers are plain numbers.

compound	composite z-score
CO[C@H]1COC(=O)[C@@H](C)COC(=O)[C@H](Cc2ccccc2)NC(=O)CC=C[C@H]1C	-1.35
C=CCN1C(=O)[C@@]2(O[C@@H](CCn3cc([C@H](O)c4ccccc4)nn3)[C@H]([Si](C)(C)c3ccc(OC)cc3)[C@H]2C)c2cc(N3CCOC3=O)ccc21	1.34
CO[C@@H]1COC(=O)[C@@H]2CCCN2C(=O)CC=C[C@@H](C)[C@H](OC)COC(=O)[C@@H]2CCCN2C(=O)CC=C[C@H]1C	-0.775

Fill in composite z-score for each of the 3 compounds listed.
1. COc1ccc(-c2ccccc2[C@@H]2N[C@H](C(=O)O)CC[C@H]2C)cc1
2. COC(=O)[C@@]1(Cc2ccccc2)[C@H]2c3cc(C(=O)N4CCCC4)n(CCN4CNCC4=O)c3C[C@H]2CN1C(=O)c1ccccc1
3. CN1CCC(CCCO)=CC1C1CC1 (centres undefined)

RESULT:
[0.351, 0.361, 0.346]

// input: 6 compounds below; output: composite z-score for each
1. CCOC(=O)C[C@H]1[C@H](OC(=O)c2cc3ccccc3oc2=O)[C@@H](NC(=O)c2ccc3ccccc3c2)c2cc(OCCCO)ccc2N1C(=O)c1ccc2ccccc2n1
2. O=C1c2ccccc2[C@](Cc2ccccc2I)(C(=O)NCc2ccccc2)[C@H](c2ccc(CO)cc2)N1Cc1ccccc1C(F)(F)F
3. CC1=C([C@H](O)CCc2ccccc2)[C@H](CO)[C@@H]2C(=O)N(Cc3ccccc3)C(=O)[C@@H]2C1
4. C=CC[C@]1(C(N)=O)N=C(c2ccc(OCCCO)cc2)O[C@H]1c1ccccc1CN=[N+]=[N-]
5. COCCOC(=O)N1C(=O)[C@@]2(c3cc(C#CCC(C(=O)OC)C(=O)OC)ccc31)[C@H](C(=O)N1CCN(c3ncccn3)CC1)[C@H]1C(=O)O[C@H](c3ccccc3)[C@H](c3ccccc3)N1[C@@H]2c1ccc(O)cc1
6. [N-]=[N+]=NCc1ccccc1C[C@]1(C(N)=O)N=C(c2ccc(OCCCO)cc2)O[C@H]1c1ccccc1CN=[N+]=[N-]

RESULT:
1. 0.322
2. -0.77
3. 0.635
4. 3.2
5. 1.55
6. 3.15

Hey, can you go through the list below and give me composite z-score for every item?
1. C=CCN1C(=O)[C@]2(O[C@H](CCn3cc(CCO)nn3)[C@@H]([Si](C)(C)c3ccc(OC)cc3)[C@@H]2C)c2cc(NC(=O)c3ccc(OC)cc3)ccc21
2. COC(=O)c1c(CC[C@@H](CO)NC(=O)N[C@H](Cn2cc(-c3cncn3C)nn2)C(C)C)oc(C(C)=O)c1C(=O)OC
3. NC(=O)[C@H]1[C@@H]2C(=O)O[C@@H](c3ccccc3)[C@@H](c3ccccc3)N2[C@@H](c2ccc(O)cc2)[C@]12C(=O)Nc1ccc(C#CCCO)cc12
4. CC(C)(C)OC(=O)CC[C@]1(C(=O)NCCN2CCOCC2)N=C(c2ccc(OCCCO)cc2)O[C@H]1c1ccccc1CN=[N+]=[N-]
5. C[C@]1(C(=O)NCCN2CCOCC2)c2ccccc2C(=O)N(Cc2ccccc2)[C@H]1c1ccc(CO)cc1
6. CO[C@H]1COC(=O)CC=C[C@H](C)COC(=O)[C@@H](OCc2ccccc2)C=C[C@@H]1C

RESULT:
1: 0.94; 2: 1.15; 3: 2.14; 4: 2.63; 5: 1.6; 6: 0.507

For every item below, please supply its composite z-score.
1. Cc1ccc(S[C@]2(C(=O)NCCN3CCOCC3)CC(=O)N(C3Cc4ccccc4C3)[C@@H]2c2ccc(CO)cc2I)cc1
2. O=C(CS)NCCCCCNC(=O)[C@H]1C[C@H]2C(=O)N[C@@H](Cc3ccccc3)C(=O)N2[C@H]1c1ccc(O)cc1
3. CCc1cccc(NC(=O)O[C@H]2[C@H](OC(=O)Nc3ccccc3)[C@@H](OC(=O)Nc3ccccc3)[C@@H](OC)O[C@@H]2CO)c1
4. COCCOC(=O)N1C(=O)[C@@]2(c3cc(C#CC4(O)CCCCCC4)ccc31)[C@H](C(=O)N1CCCCCCC1)[C@H]1C(=O)O[C@H](c3ccccc3)[C@H](c3ccccc3)N1[C@@H]2c1ccc(O)cc1

RESULT:
1: 0.0031; 2: 1.58; 3: 0.51; 4: 1.25

Please report composite z-score for every entry that follows.
1. N#Cc1ccc(NN2C(C(O)CCc3ccccc3)C=CC3C(=O)N(c4ccccc4)C(=O)C32)cc1 (centres undefined)
2. CCOC(=O)C1=CCC(c2cccc3ccccc23)N(S(=O)(=O)c2ccc(C)cc2)C1 (centres undefined)
3. CO[C@H]1COC(=O)[C@H](C)COC(=O)[C@H](Cc2ccccc2)NC(=O)CC=C[C@H]1C
4. Cc1ccc(N2C(=O)c3ccccc3[C@](C)(C(=O)NCC(C)C)[C@@H]2c2ccc(CO)cc2)nc1
5. CO[C@@H]1COC(=O)CC=C[C@H](C)COC(=O)[C@H](Cc2ccccc2)NC(=O)CC=C[C@H]1C
6. O=C1C2C=CC(C(O)c3ccccc3)N(n3cnnc3)C2C(=O)N1Cc1ccccc1 (centres undefined)

RESULT:
1. 1.31
2. 0.206
3. -0.384
4. -1.02
5. 0.236
6. 0.0968

So, `C=CCc1cccc([C@H]2N[C@H](C(=O)O)CC[C@@H]2C)c1` ? Its composite z-score was 0.7

# credit: PubChem BioAssay
